assayNotes: Substrate specificities of KAZ mutants (ZZ-fused, crude enzyme), CTZ
Type: biochemical
conditionSet: ZZ-fused crude enzyme; 1 μg substrate; maximum intensity of luminescence
measuredQuantity: Relative Luminescence Activity CTZ Imax
The response must contain the number and no unit.

Q. Note Relative Luminescence Activity CTZ Imax for the molecule shown: KAZ-V44I-A54I-Y138I: KAZ mutant with three amino acid substitutions V44I, A54I and Y138I, SEQ ID NO: 16 (protein) FTLADFVGDWQQTAGYNQDQVLEQGGLSSLFQALGVSVTPIQKIVLSGENGLKIDIHVIIPYEGLSGFQMGLIEMIFKVVYPVDDHHFKIILHYGTLVIDGVTPNMIDYFGRPYPGIAVFDGKQITVTGTLWNGNKIIDERLINPDGSLLFRVTINGVTGWRLCENILA
A. 66.7
